# ASSAY PROCEDURE: NCI Yeast Anticancer Drug Screen. Data for the cln2 rad14 strain (AID 165);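 further: 0% = growth equal to vehicle treated cultures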
# CONDITION: S. cerevisiae cln2 rad14 strain, at 50.0 µM, hits give high values
The panel holds about 79,000 compounds, 15% with a hit somewhere; the sample as a whole holds those more often. The source made the active and inactive calls. No stated cut-off is given here; in the data, active means growth inhibition above about 70%; inactive means the rest.
MEASURE: growth inhibition

INSERT INTO results (molecule, value_observed) VALUES
  ('CC(SCCNC(N)=O)C(N)=O (stereo not drawn)', '-28.4% (inactive)');

## Input Look up growth inhibition of CCCCCC1SCC(=O)N1c1nncs1 (stereo not drawn) and report it.
## Output 5.85% (inactive)
